Value source: ChEMBL document CHEMBL1201862

Entries with their measured AC50, system Cytochrome P450 2C9 (Homo sapiens):

What AC50 appears in the records for this compound with Cytochrome P450 2C9 (Homo sapiens)? `CCCn1nc2cc(C(=O)NCc3ccc4c(c3)OCO4)ccc2c1OCC` 10 µM (inconclusive)

What AC50 appears in the records for this compound with Cytochrome P450 2C9 (Homo sapiens)? `N#Cc1cccc(NC(=O)N2CC3(CCN(C(=O)Oc4ccccc4)CC3)C2)c1` 15.8 µM (inconclusive)

What AC50 appears in the records for this compound with Cytochrome P450 2C9 (Homo sapiens)? `Nc1nc(SC/C=C\c2ccccc2)c2nc[nH]c2n1` 3.98 µM (inconclusive)

What AC50 appears in the records for this compound with Cytochrome P450 2C9 (Homo sapiens)? `OCC/N=C1\CCCc2c1[nH]c1ccc(Br)cc21` 7.08 µM (inconclusive)

What AC50 appears in the records for this compound with Cytochrome P450 2C9 (Homo sapiens)? `CC1(C)CCC(C)(C)c2cc(C(=O)Nc3ccc(C(=O)O)cc3)ccc21` 15.8 µM (inconclusive)

Read the next record carefully.
What AC50 appears in the records for this compound with Cytochrome P450 2C9 (Homo sapiens)? `CCc1c(O)n(-c2ccccc2)c(SCC(=O)NC(C)(C)C)nc1=O` 20 µM (inconclusive)
